assay: MTT cytotoxicity assay, normal hepatic cell line HL-7702; assay type: cell-based; settings: HL-7702 normal hepatic cells, human normal hepatic immortal cell line, drug exposure 48 h, mean ± SD (n = 3), read-out: Cytotoxic activity (IC50) HL-7702
Measure name: IC50 at 48 h (µM)
# value in µM; strip the unit string

COc1cc([C@@H]2c3cc4c(cc3[C@@H](Nc3cccc(Br)c3)[C@H]3COC(=O)[C@H]23)OCO4)cc(OC)c1OC [Compound 5]	13.6

Q. Name the recorded IC50 at 48 h of the item COc1cc([C@@H]2c3cc4c(cc3[C@@H](Nc3ccccc3F)[C@H]3COC(=O)[C@H]23)OCO4)cc(OC)c1OC [Compound 4] in your answer.
A. 16

Q. Name the recorded IC50 at 48 h of the item COc1cc([C@@H]2c3cc4c(cc3[C@@H](Nc3ccccc3Br)[C@H]3COC(=O)[C@H]23)OCO4)cc(OC)c1O [2′] in your answer.
A. 47.4

Q. Name the recorded IC50 at 48 h of the item COc1cc([C@@H]2c3cc4c(cc3[C@@H](Nc3ccccc3)[C@H]3COC(=O)[C@H]23)OCO4)cc(OC)c1OC [Compound 1] in your answer.
A. 41.8

###

test system: HeLa cells; assay: Cell cycle analysis by flow cytometry (PI); format: cell-based; settings: HeLa, 0.1 μM, 6, 12, 24 and 48 h
Measure name: Ratio of cell cycle arrest (of total cells)

COc1ccc(N[C@@H]2c3cc4c(cc3[C@@H](c3cc(OC)c(O)c(OC)c3)[C@H]3C(=O)OC[C@@H]32)OCO4)cc1	less than 10%
COc1ccc(N[C@@H]2c3cc4c(cc3[C@@H](c3cc(OC)c(OC)c(OC)c3)[C@H]3C(=O)OC[C@@H]32)OCO4)cc1Br	less than 10%
COc1ccc(NC2c3cc4c(cc3C(c3cc(OC)c(OC)c(OC)c3)C3C(=O)OCC23)OCO4)cc1F (stereo not drawn)	less than 10%

###

The compounds listed here are annotated with their IC50.
tested on: HeLa; test: MTT cytotoxicity assay, HeLa; assay type: cell-based; conditions: drug exposure 48 h, mean ± SD (n = 3), read-out: Cytotoxic activity (IC50) HeLa
Number first, unit second.

COc1cc([C@@H]2c3cc4c(cc3[C@@H](O[C@@H]3O[C@@H]5CO[C@@H](C)O[C@H]5[C@H](O)[C@H]3O)[C@H]3COC(=O)[C@H]23)OCO4)cc(OC)c1O [Etoposide, reference compound]	59.4 µM

Q. Name the recorded IC50 of the item COc1ccc(NC2c3cc4c(cc3C(c3cc(OC)c(OC)c(OC)c3)C3C(=O)OCC23)OCO4)cc1F (centres unmarked) [Compound 19] in your answer.
A. 0.72 µM

###

assay: MTT cytotoxicity assay, normal hepatic cell line HL-7702; type: cell-based; details: HL-7702 normal hepatic cells, human normal hepatic immortal cell line, drug exposure 48 h, mean ± SD (n = 3), read-out: Cytotoxic activity (IC50) HL-7702
Field 'label' (enum: Fulfilled / Not fulfilled). Set to Fulfilled when IC50 at 48 h is strictly under 30 µM; else Not fulfilled.

Some solved cases for reference:
COc1ccc(F)cc1N[C@@H]1c2cc3c(cc2[C@@H](c2cc(OC)c(O)c(OC)c2)[C@H]2C(=O)OC[C@@H]21)OCO3	Fulfilled
COc1cc([C@@H]2c3cc4c(cc3[C@@H](Nc3ccc(F)cc3)[C@H]3COC(=O)[C@H]23)OCO4)cc(OC)c1OC	Fulfilled
COc1ccc(N[C@@H]2c3cc4c(cc3[C@@H](c3cc(OC)c(OC)c(OC)c3)[C@H]3C(=O)OC[C@@H]32)OCO4)cc1Cl	Not fulfilled
COc1ccc(N[C@@H]2c3cc4c(cc3[C@@H](c3cc(OC)c(OC)c(OC)c3)[C@H]3C(=O)OC[C@@H]32)OCO4)cc1Br	Not fulfilled
COc1cc([C@@H]2c3cc4c(cc3[C@@H](Nc3ccc(Cl)cc3)[C@H]3COC(=O)[C@H]23)OCO4)cc(OC)c1O	Fulfilled

Q. # strict comparison: is reported IC50 at 48 h < 30 µM? input = COc1cc([C@@H]2c3cc4c(cc3[C@@H](Nc3ccccc3)[C@H]3COC(=O)[C@H]23)OCO4)cc(OC)c1O
A. Not fulfilled

Q. # strict comparison: is reported IC50 at 48 h < 30 µM? input = COc1cc([C@@H]2c3cc4c(cc3[C@@H](Nc3ccccc3F)[C@H]3COC(=O)[C@H]23)OCO4)cc(OC)c1O
A. Not fulfilled

Q. # strict comparison: is reported IC50 at 48 h < 30 µM? input = COc1ccc(Br)cc1N[C@@H]1c2cc3c(cc2[C@@H](c2cc(OC)c(OC)c(OC)c2)[C@H]2C(=O)OC[C@@H]21)OCO3
A. Not fulfilled

Q. # strict comparison: is reported IC50 at 48 h < 30 µM? input = COc1cc([C@@H]2c3cc4c(cc3[C@@H](Nc3ccc(Br)cc3)[C@H]3COC(=O)[C@H]23)OCO4)cc(OC)c1OC
A. Fulfilled

Q. # strict comparison: is reported IC50 at 48 h < 30 µM? input = COc1cccc(N[C@@H]2c3cc4c(cc3[C@@H](c3cc(OC)c(OC)c(OC)c3)[C@H]3C(=O)OC[C@@H]32)OCO4)c1
A. Not fulfilled

Q. # strict comparison: is reported IC50 at 48 h < 30 µM? input = COc1ccc(Br)cc1N[C@@H]1c2cc3c(cc2[C@@H](c2cc(OC)c(O)c(OC)c2)[C@H]2C(=O)OC[C@@H]21)OCO3
A. Not fulfilled

Q. # strict comparison: is reported IC50 at 48 h < 30 µM? input = COc1cc([C@@H]2c3cc4c(cc3[C@@H](Nc3cccc(Br)c3)[C@H]3COC(=O)[C@H]23)OCO4)cc(OC)c1O
A. Not fulfilled
